The entries below come with measured IC50 values attached.
# measured on: Nav1.7 (or SCN9A) channel (Homo sapiens, UniProt Q15858)
# Construct: expressed in transfected cells
# Sequence (Q15858 whole entry): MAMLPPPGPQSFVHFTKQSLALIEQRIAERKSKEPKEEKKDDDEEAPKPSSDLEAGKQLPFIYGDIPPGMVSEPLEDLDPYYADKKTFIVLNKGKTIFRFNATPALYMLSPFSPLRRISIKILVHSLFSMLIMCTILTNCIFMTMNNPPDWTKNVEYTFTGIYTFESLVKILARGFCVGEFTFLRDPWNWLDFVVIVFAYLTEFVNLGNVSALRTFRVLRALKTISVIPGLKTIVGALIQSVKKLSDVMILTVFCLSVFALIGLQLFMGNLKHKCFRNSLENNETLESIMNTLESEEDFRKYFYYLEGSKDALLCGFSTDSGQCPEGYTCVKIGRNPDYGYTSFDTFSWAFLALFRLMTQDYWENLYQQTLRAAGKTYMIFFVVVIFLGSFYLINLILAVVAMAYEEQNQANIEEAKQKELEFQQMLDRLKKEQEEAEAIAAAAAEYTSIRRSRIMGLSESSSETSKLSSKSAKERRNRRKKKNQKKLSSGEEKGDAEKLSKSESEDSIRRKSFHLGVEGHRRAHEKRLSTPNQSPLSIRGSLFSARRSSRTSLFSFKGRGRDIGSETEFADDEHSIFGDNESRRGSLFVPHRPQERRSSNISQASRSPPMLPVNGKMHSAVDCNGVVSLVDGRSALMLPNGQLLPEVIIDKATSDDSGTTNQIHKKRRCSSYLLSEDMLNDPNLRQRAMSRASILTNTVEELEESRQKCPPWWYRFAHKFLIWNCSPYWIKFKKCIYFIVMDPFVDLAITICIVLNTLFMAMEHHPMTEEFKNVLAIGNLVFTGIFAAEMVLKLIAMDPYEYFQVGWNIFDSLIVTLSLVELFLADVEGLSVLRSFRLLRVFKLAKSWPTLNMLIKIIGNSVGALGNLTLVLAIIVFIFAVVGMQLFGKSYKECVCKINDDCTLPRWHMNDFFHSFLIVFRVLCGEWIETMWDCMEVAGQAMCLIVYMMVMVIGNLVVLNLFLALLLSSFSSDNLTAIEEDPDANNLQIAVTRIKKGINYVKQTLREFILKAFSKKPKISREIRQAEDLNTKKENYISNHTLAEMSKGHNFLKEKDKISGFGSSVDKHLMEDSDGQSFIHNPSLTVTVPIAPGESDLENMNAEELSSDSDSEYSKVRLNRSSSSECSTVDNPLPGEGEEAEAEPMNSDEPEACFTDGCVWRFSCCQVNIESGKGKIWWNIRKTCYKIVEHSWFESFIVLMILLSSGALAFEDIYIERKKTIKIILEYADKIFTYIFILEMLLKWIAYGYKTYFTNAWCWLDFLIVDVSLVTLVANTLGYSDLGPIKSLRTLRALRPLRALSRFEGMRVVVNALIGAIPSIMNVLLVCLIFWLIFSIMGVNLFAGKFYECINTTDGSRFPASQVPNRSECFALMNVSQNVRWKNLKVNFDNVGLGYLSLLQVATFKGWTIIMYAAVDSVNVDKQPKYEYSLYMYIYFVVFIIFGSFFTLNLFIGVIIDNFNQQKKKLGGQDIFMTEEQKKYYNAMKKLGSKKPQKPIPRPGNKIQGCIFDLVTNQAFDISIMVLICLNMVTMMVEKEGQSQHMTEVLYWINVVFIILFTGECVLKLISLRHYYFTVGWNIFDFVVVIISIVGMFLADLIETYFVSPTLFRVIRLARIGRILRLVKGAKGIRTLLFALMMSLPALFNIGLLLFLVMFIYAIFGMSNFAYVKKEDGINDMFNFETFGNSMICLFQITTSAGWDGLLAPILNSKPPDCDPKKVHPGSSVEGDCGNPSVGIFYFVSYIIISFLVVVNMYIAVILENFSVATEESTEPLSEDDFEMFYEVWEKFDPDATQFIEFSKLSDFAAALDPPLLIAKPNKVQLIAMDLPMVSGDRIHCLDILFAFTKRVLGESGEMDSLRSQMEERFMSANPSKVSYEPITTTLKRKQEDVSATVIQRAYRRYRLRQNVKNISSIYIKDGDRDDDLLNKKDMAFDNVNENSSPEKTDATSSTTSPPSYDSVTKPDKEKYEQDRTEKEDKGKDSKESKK
# assay remarks: Nav1.7 (hSCN9A) block in HEK cells, PatchXpress 7000 automated electrophysiology, estimated IC50 (EIC50)
# Format: cell-based
# measurement conditions: PatchXpress assay; HEK cells stably transfected with hSCN9A, voltage-clamped at V1/2 of inactivation
Express your answer in nM, writing the number without its unit.

The following compounds have reported results that may help.
CS(=O)(=O)NC(=O)c1cc(F)c(Oc2cnc(N3CC(F)C3)c(Cl)c2)cc1F ... 580
CC(C)COc1ncc(Oc2cc(F)c(C(=O)NS(C)(=O)=O)cc2F)cc1Cl ... 39
CS(=O)(=O)NC(=O)c1cc(Cl)c(Oc2cnc(C3CC3)c(Cl)c2)cc1F ... 30

Query: Report IC50 for CS(=O)(=O)NC(=O)c1cc(F)c(Oc2cnc(N3CCCCC3)c(Cl)c2)cc1F please.
Reply: 170

###

# measured on: Nav1.7 (or SCN9A) channel (Homo sapiens)
# Construct: expressed in transfected cells
# assay remarks: Nav1.7 (hSCN9A) block in HEK cells, PatchXpress 7000 automated electrophysiology, estimated IC50 (EIC50)
# Assay type: cell-based
# measurement conditions: PatchXpress assay; HEK cells stably transfected with hSCN9A, voltage-clamped at V1/2 of inactivation
measurement name: pIC50
Field pIC50 (float): negative decimal logarithm of the concentration in molar.

The following compounds have reported results that may help.
CS(=O)(=O)NC(=O)c1cc(F)c(Oc2cnc(NC3CCCOC3)c(Cl)c2)cc1F (centres unmarked) ... 6.09
CS(=O)(=O)NC(=O)c1cc(Cl)c(Oc2cnc(C3CC3)c(Cl)c2)cc1Cl ... 6.17
CS(=O)(=O)NC(=O)c1cc(Cl)c(Oc2cnc(OC3CC3)c(Cl)c2)cc1F ... 7.32
COC(C)(C)CNc1ncc(Oc2cc(F)c(C(=O)NS(C)(=O)=O)cc2F)cc1Cl ... 6.60

Query: Report pIC50 for CNc1ncc(Oc2cc(F)c(C(=O)NS(C)(=O)=O)cc2F)cc1Cl please.
Reply: 5.49

Query: Report pIC50 for CS(=O)(=O)NC(=O)c1cc(Cl)c(Oc2cnc(OCC(F)(F)C(F)F)c(C(F)(F)F)c2)cc1F please.
Reply: 7.51

###

# measured on: Nav1.7 (or SCN9A) channel (Homo sapiens)
# Construct: expressed in transfected cells
# assay remarks: Nav1.7 (hSCN9A) block in HEK cells, PatchXpress 7000 automated electrophysiology, estimated IC50 (EIC50)
# Type: cell-based
# measurement conditions: PatchXpress assay; HEK cells stably transfected with hSCN9A, voltage-clamped at V1/2 of inactivation
measurement name: IC50 (nM)
Express your answer in nM, writing the number without its unit.

Query: Report IC50 for CC(Oc1ncc(Oc2cc(F)c(C(=O)NS(C)(=O)=O)cc2Cl)cc1Cl)C(F)(F)F (centres unmarked) please.
Reply: 11

Query: Report IC50 for CC(C)Cc1ncc(Oc2cc(F)c(C(=O)NS(C)(=O)=O)cc2F)cc1Cl please.
Reply: 760

###

# measured on: Nav1.7 (or SCN9A) channel (Homo sapiens)
# Construct: expressed in transfected cells
# assay remarks: Nav1.7 (hSCN9A) block in HEK cells, PatchXpress 7000 automated electrophysiology, estimated IC50 (EIC50)
# Format: cell-based
# measurement conditions: PatchXpress assay; HEK cells stably transfected with hSCN9A, voltage-clamped at V1/2 of inactivation
We label by threshold. Values of IC50 strictly beneath 300 nM are true. Values of 300 nM and up are false.

CS(=O)(=O)NC(=O)c1cc(F)c(Oc2cccn3ccnc23)cc1F ... false
CS(=O)(=O)NC(=O)c1cc(F)c(Oc2cnc(C(F)(F)F)nc2)cc1F ... false
CCN1CCN(c2ncc(Oc3cc(F)c(C(=O)NS(C)(=O)=O)cc3F)cc2Cl)CC1 ... false
CS(=O)(=O)NC(=O)c1cc(Cl)c(Oc2cnc(N3CC(F)(F)C3)c(Cl)c2)cc1F ... true
CCC(COC)Nc1ncc(Oc2cc(F)c(C(=O)NS(C)(=O)=O)cc2F)cc1Cl (stereo not drawn) ... false
CCC(C)S(=O)(=O)NC(=O)c1cc(F)c(Oc2cnc(OC)c(Cl)c2)cc1F (stereo not drawn) ... false

Kindly review the next compound as well.
Query: Could you please tell me whether IC50 recorded for CN(c1ncc(Oc2cc(F)c(C(=O)NS(C)(=O)=O)cc2F)cc1Cl)C1CC1 is less than 300 nM?
Reply: false

###

# measured on: Nav1.7 (or SCN9A) channel (Homo sapiens, UniProt Q15858)
# Construct: expressed in transfected cells
# assay remarks: Nav1.7 (hSCN9A) block in HEK cells, PatchXpress 7000 automated electrophysiology, estimated IC50 (EIC50)
# Assay type: cell-based
# measurement conditions: PatchXpress assay; HEK cells stably transfected with hSCN9A, voltage-clamped at V1/2 of inactivation
The entries below come with measured pIC50 values attached.
Field pIC50 (float): negative decimal logarithm of the concentration in molar.

Query: Form field - read-out: pIC50; system: Nav1.7 (or SCN9A) channel (Homo sapiens, UniProt Q15858); submitted item: CS(=O)(=O)NC(=O)c1cc(F)c(Oc2cnc(NC3CCCC3)c(Cl)c2)cc1F
Reply: 7.07

Query: Form field - read-out: pIC50; system: Nav1.7 (or SCN9A) channel (Homo sapiens, UniProt Q15858); submitted item: CC(C)Oc1ncc(Oc2ccc(C(=O)NS(C)(=O)=O)c(F)c2)cc1Cl
Reply: 6.51

Query: Form field - read-out: pIC50; system: Nav1.7 (or SCN9A) channel (Homo sapiens, UniProt Q15858); submitted item: [2H]C(C)(C)Oc1ncc(Oc2cc(F)c(C(=O)NS(C)(=O)=O)cc2F)cc1Cl
Reply: 6.72

Query: Form field - read-out: pIC50; system: Nav1.7 (or SCN9A) channel (Homo sapiens, UniProt Q15858); submitted item: CC(C)Oc1ncc(Oc2ccc(C(=O)NS(C)(=O)=O)cc2Cl)cc1Cl
Reply: 7.38
